Values from patent US9340577

target_under_test: T1, H-2Db (mouse)
T1 chain 1: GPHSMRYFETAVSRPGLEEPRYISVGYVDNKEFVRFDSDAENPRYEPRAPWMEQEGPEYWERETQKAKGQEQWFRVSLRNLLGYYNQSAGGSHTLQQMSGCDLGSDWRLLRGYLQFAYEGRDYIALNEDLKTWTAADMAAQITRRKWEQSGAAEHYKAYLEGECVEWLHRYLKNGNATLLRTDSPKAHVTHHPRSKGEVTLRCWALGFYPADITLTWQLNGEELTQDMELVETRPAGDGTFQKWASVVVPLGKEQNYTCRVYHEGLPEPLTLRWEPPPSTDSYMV
T1 chain 2: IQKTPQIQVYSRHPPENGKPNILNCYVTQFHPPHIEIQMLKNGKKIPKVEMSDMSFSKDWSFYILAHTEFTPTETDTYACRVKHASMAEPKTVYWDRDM
method: competition
condition_set: modification not given
Listed here: items and their measured IC50.
Note: a bare number is incomplete; add the unit.

The following binders have reported results that may help.
In [3]: df
Out[3]:
                 binder  measured_parameter  result
0   KVPRNQDWL [F142.01]                IC50   38 nM
1  SGPSNTPPEI [1079.06]                IC50  8.1 nM

query: Fill blank: measured IC50 of the binder AAAANAAAM [F079.08] is ____.
result: 23 nM

query: Also ASNENMDAM [1275.03] ?
result: 28 nM
